Molecular target: E3 ubiquitin-protein ligase XIAP (Homo sapiens)
Assay: small molecules binding XIAP protein – biophysical, small-molecule microarray, fluorescence 635 nm, primary screen (AID 1181);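 further: score merges 667 nm emission and signal to noise over triplicate slides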
Details: higher = more signal
Assign 1 whenever composite z-score does not fall below 0.1; assign 0 whenever it does.

>>> cat("O=C1N(CCS(=O)(=O)c2ccccc2)c2ccccc2[C@H]2OC(c3ccc(OCCCO)cc3)=N[C@@]12Cc1ccccc1")
1
>>> cat("COC(=O)C(CC#Cc1ccc2c(c1)[C@]1(C(=O)N2)[C@H](c2ccc(O)cc2)N2[C@H](c3ccccc3)[C@H](c3ccccc3)OC(=O)[C@H]2[C@@H]1C(=O)NC[C@H](O)c1ccccc1)C(=O)OC")
0
>>> cat("COc1ccc(CCNC(=O)[C@@]2(Cc3ccccc3I)c3ccccc3C(=O)N(C3CCCCC3)[C@H]2c2ccc(CO)cc2)cc1")
1
>>> cat("COc1cc2c(cc1O)C(C1CC1)N(C)CC2 (stereo not drawn)")
1
>>> cat("C=C[C@@H](CO)N(Cc1ccc(OC)cc1)S(=O)(=O)c1ccc(Br)cc1")
0
>>> cat("O=C(O)[C@@H]1C[C@@H]2C(=O)N3CCC[C@H]3C(=O)N2[C@@H]1c1ccc(O)cc1")
0
>>> cat("COc1cc(OC)c(C(O)C2C=CC3C(=O)N(Cc4ccccc4)C(=O)C3N2n2cnnc2)cc1Br (stereo not drawn)")
1
>>> cat("CC#CCO[Si](C#Cc1ccccc1)(C(C)C)C(C)C")
0

====

Experiment: JC-1 mitochondrial signal, unstimulated MM1S myeloma – cell-based, JC-1 fluorescence, 24 h, 100 nL compound, profiling panel (AID 1170)
Details: MM1S mitochondrial potential, higher = more signal
Output schema: class label derived from z-score. Mapping: range 1: < -0.8; range 2: ≥ -0.8 and < 0.2; range 3: ≥ 0.2

>>> cat("[N-]=[N+]=Nc1ccccc1C[C@@]1(C(N)=O)N=C(c2ccc(OCCCO)cc2)O[C@@H]1c1ccccc1N=[N+]=[N-]")
"range 2"
>>> cat("C#Cc1cc2ccccc2oc1=O")
"range 1"
>>> cat("O=C(NCc1ccc(F)cc1)[C@H]1C[C@H]2C(=O)NCC(=O)N2[C@H]1c1ccc(O)cc1")
"range 3"
>>> cat("COCCOC(=O)N1C(=O)[C@@]2(c3cc(C#CC4=CCCCC4)ccc31)[C@H](C(=O)Nc1nc3ccccc3s1)[C@H]1C(=O)O[C@H](c3ccccc3)[C@H](c3ccccc3)N1[C@@H]2c1ccc(O)cc1")
"range 2"
>>> cat("CCCCCCCCCCC(O)C1C=CC2C(=O)N(c3ccccc3)C(=O)C2N1Nc1ccc(C#N)cc1 (configuration not stated)")
"range 2"
>>> cat("C[N+](C)(C)CCCCCCNC(=O)[C@@H]1C[C@@H]2C(=O)N3CCC[C@H]3C(=O)N2[C@@H]1c1ccc(O)cc1")
"range 2"
>>> cat("Cc1ccc(S[C@]2(C(=O)NCc3ccccc3)CC(=O)N(C3CCCCC3)[C@@H]2c2ccc(CO)cc2I)cc1")
"range 1"
>>> cat("CCCN1C(=O)[C@]2(Cc3ccccc31)N=C(c1ccc(OCCCO)cc1)O[C@@H]2c1ccccc1")
"range 3"
>>> cat("COCCOC(=O)N1C(=O)[C@@]2(c3cc(C#CCNC(N)=O)ccc31)[C@H](C(N)=O)[C@H]1C(=O)O[C@H](c3ccccc3)[C@H](c3ccccc3)N1[C@@H]2c1ccccc1OCCO")
"range 3"
>>> cat("CC(=O)NCCCC[C@@H]1NC(=O)[C@@H]2C[C@H](C(=O)NCCCCCN)[C@H](c3ccc(O)cc3)N2C1=O")
"range 3"
>>> cat("O=C1C2C=CC(C(O)C3CC=CCC3)N(Nc3ccccc3)C2C(=O)N1c1ccccc1 (configuration not stated)")
"range 1"

====

System: XIP peptide (Xip251-270) binding
Assay: XIP fragment 251-270 binding compounds – biochemical, small-molecule microarray, fluorescence 635/667 nm, 0.1 µg/mL protein, primary screen (AID 1182)
Details: fluorescent protein binding, 635 nm, higher = more signal, called active from +8 up or from −8 down
Consider the following molecules and their measured composite z-score readings.
Observed property: composite z-score

>>> result_number("[N-]=[N+]=Nc1ccccc1C[C@@]1(C(N)=O)N=C(c2ccc(OCCCO)cc2)O[C@@H]1c1ccccc1N=[N+]=[N-]")
1.28
>>> result_number("O=C(Cc1ccccc1)[C@H]1C2C=CCCC(c3ccccc3)=C2CN1Cc1ccccc1 (some centres not stated)")
1.11
>>> result_number("O=C(O)[C@@H]1[C@@H]2C(=O)N(c3ccccc3)C(=O)[C@@H]2C[C@@H]1Sc1ccccc1")
-0.213
>>> result_number("[N-]=[N+]=Nc1ccccc1[C@@H]1OC(c2ccc(OCCCO)cc2)=N[C@]1(Cc1ccccc1)C(=O)O")
0.315
>>> result_number("CC(=O)NCCCC[C@@H]1NC(=O)[C@@H]2C[C@H](C(=O)NCCCCCN)[C@H](c3ccc(O)cc3)N2C1=O")
0.0292
>>> result_number("CC(=O)N1CC2(CC2)CC1c1ccccc1 (configuration not stated)")
0.485
>>> result_number("COCCOC(=O)N1C(=O)[C@@]2(c3cc(C#CCC(C(=O)OC)C(=O)OC)ccc31)[C@H](c1ccc(OCCO)cc1)N1[C@H](c3ccccc3)[C@H](c3ccccc3)OC(=O)[C@H]1[C@@H]2C(=O)N1CCc2cc(OC)c(OC)cc2C1")
1.24

====

Consider the following compounds and their measured z-score readings.
Assay: blockers of DNA damage checkpoint Chk1 activation – imaging, HeLa, hydroxyurea, phospho-Chk1 antibody, percent positive cells, primary screen (AID 1186)
Conditions: hydroxyurea-induced phospho-Chk1 immunofluorescence imaging, higher = more signal
Observed property: z-score

>>> result_number("[N-]=[N+]=Nc1ccccc1C[C@@]1(C(=O)NCCN2CCOCC2)N=C(c2ccc(OCCCO)cc2)O[C@@H]1c1ccccc1N=[N+]=[N-]")
-0.303
>>> result_number("CC(C)[Si](C#C[Si](C(C)C)(C(C)C)C(C)C)(O[C@H](c1ccccc1)c1cn(Cc2ccccc2)nn1)C(C)C")
-0.269
>>> result_number("CO[C@H]1O[C@H](CO)[C@@H](OC(=O)CCc2ccccc2)[C@@H]2OC(=O)[C@@H](Cc3ccccc3)C/C=C/C[C@H](Cc3ccccc3)C(=O)O[C@@H]12")
-0.682
>>> result_number("O=C(Cc1ccccc1)[C@H]1C2C=CCCC(c3ccccc3)=C2CN1Cc1ccccc1 (some centres undefined)")
-0.171

====

Consider the following compounds and their measured composite z-score readings.
Assay: probe aNog binding to arrayed compounds – biochemical, biotinylated probe, 635/667 nm fluorescence, primary screen (AID 1115);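 further: probe is biotinylated aNog protein used at 0.15 µg/mL for 1 h at 4 C; z-score combines 667 nm fluorescence of each spot with its signal to noise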
Details: small-molecule microarray, higher = more signal
Observed property: composite z-score

>>> result("CN(C)C(=O)[C@]1(Cc2ccccc2CN=[N+]=[N-])N=C(c2ccc(OCCCO)cc2)O[C@@H]1c1ccccc1")
1.05
>>> result("Oc1ccc2cc[n+](Cc3cc4c(cc3Br)OCO4)cc2c1")
-0.0546
>>> result("Cc1ccccc1C(O)C1C=CC2C(=O)NC(=O)C2N1Nc1ccccn1 (centres undefined)")
-0.0682
>>> result("O=C(O)[C@@H]1C[C@@H]2C(=O)N3CCC[C@H]3C(=O)N2[C@@H]1c1ccc(O)cc1")
-0.226
>>> result("CCOC(=O)C1=CC[C@@H](c2ccccc2F)N(S(=O)(=O)c2ccc(C)cc2)[C@H]1c1ccccc1")
-0.473
>>> result("COC(=O)[C@@]1(Cc2ccccc2)[C@H]2c3cc(C(=O)N(C)C)n(Cc4ccc(C)o4)c3C[C@H]2CN1C(=O)c1ccccc1")
0.728
>>> result("C=CCNC(=O)[C@@H]1[C@H]2C(=O)O[C@H](c3ccccc3)[C@H](c3ccccc3)N2[C@H](c2ccccc2OCCO)[C@@]12C(=O)N(C(=O)OCCOC)c1ccc(C#CC3(O)CCCCCC3)cc12")
-0.0224
>>> result("CCCC[C@@H](O)C1=C(COC)C[C@H]2C(=O)N(Cc3ccccc3)C(=O)[C@H]2[C@H]1CO")
0.116
>>> result("NCCCCCNC(=O)[C@H]1C[C@H]2C(=O)N3CCC[C@H]3C(=O)N2[C@H]1c1cccc(OCCO)c1")
-0.403
>>> result("O=c1cccc(-c2ccc([N+](=O)[O-])cc2)o1")
-0.208
>>> result("CN(C)C(=O)[C@]1(CCC(=O)OC(C)(C)C)N=C(c2ccc(OCCCO)cc2)O[C@@H]1c1ccccc1CN=[N+]=[N-]")
1.13
>>> result("C=C[C@H]1C(C(=O)OCC)=CC[C@@H](c2ccccc2)N1S(=O)(=O)c1ccc(C)cc1")
-0.289
>>> result("Cc1ccc(N2C(=O)c3ccccc3[C@@H](C(=O)NCCCN(C)C)[C@@H]2c2ccc(CO)cc2)nc1")
-0.577
>>> result("CC(C)C(CO)N1C(=O)[C@@H]2C3C(=O)OCCC/C=C\\[C@H]3OC23C=CCN(c2ccc4ccccc4c2)C(=O)[C@@H]13 (some centres undefined)")
0.117
>>> result("COc1ccc([Si](C)(C)[C@@H]2[C@@H](CC(=O)N(CCO)Cc3ccccc3)O[C@]3(C(=O)N(Cc4cccc(N5CCCCC5=O)c4)c4ccccc43)[C@H]2C)cc1")
1.73
>>> result("C=CCC(OC(C)=O)[C@@H]1[C@@H](N(Cc2cccc3ccccc23)C(=O)Cc2ccc(F)cc2)c2cc(OCCCO)ccc2N1C(=O)c1ccc2ccccc2c1 (some centres undefined)")
-0.17
>>> result("Cc1cc(C)c(C(O)C2C=CC3C(=O)N(c4ccccc4)C(=O)C3N2Nc2ccccc2F)c(C)c1 (centres undefined)")
1.32
>>> result("NC(=O)NCC#Cc1ccc2c(c1)[C@]1(C(=O)N2)[C@H](c2ccccc2OCCO)N2[C@H](c3ccccc3)[C@H](c3ccccc3)OC(=O)[C@H]2[C@@H]1C(=O)NC[C@H](O)c1ccccc1")
-0.213
>>> result("CO[C@H]1O[C@H](CO)[C@@H](OC(=O)Nc2ccc3c(c2)OCO3)[C@H](OC(=O)Nc2ccc3c(c2)OCO3)[C@@H]1OC(=O)Nc1ccc2c(c1)OCO2")
0.909
>>> result("CCCCC[C@H]1OC[C@@]23C=C(Br)[C@@H](CC12)[C@@]1(CO1)C3=O (some centres undefined)")
-0.183
>>> result("COc1ccc([Si](C)(C)[C@H]2[C@H](CC(=O)N(CCO)Cc3ccccc3)O[C@@]3(C(=O)N(C)c4c(Br)cc(C)cc43)[C@@H]2C)cc1")
-0.291
>>> result("[N-]=[N+]=Nc1ccccc1C[C@@]1(C(=O)NCCN2CCOCC2)N=C(c2ccc(OCCCO)cc2)O[C@@H]1c1ccccc1N=[N+]=[N-]")
-0.406
>>> result("CCOC(=O)C1=C[C@@H](C(C)(C)C)N(S(=O)(=O)c2ccc(C)cc2)[C@H]1c1cccc2ccccc12")
-0.145
>>> result("COCCOC(=O)N1C(=O)[C@@]2(c3cc(C#CC4(O)CCCCCC4)ccc31)[C@H](c1ccc(O)cc1)N1[C@H](c3ccccc3)[C@H](c3ccccc3)OC(=O)[C@H]1[C@@H]2C(=O)N1CCN(c2ncccn2)CC1")
-0.679
>>> result("C[N+](C)(C)CCCCCCNC(=O)[C@@H]1C[C@@H]2C(=O)N3CCC[C@H]3C(=O)N2[C@@H]1c1ccc(O)cc1")
-0.29
>>> result("CCCCCCCCCCC(O)C1C=CC2C(=O)N(c3ccccc3)C(=O)C2N1Nc1ccc(C#N)cc1 (centres undefined)")
-0.889
>>> result("[N-]=[N+]=NCc1ccccc1[C@@H]1OC(c2ccc(OCCCO)cc2)=N[C@]1(CCS(=O)(=O)c1ccccc1)C(=O)O")
0.592
>>> result("CN1C(=O)C2C=CC(C(O)c3cccn3C)N(Nc3ccc([N+](=O)[O-])cc3[N+](=O)[O-])C2C1=O (centres undefined)")
0.31
>>> result("O=C(c1ccccc1)N1C(=O)[C@]2(Cc3ccccc31)N=C(c1ccc(OCCCO)cc1)O[C@@H]2c1ccccc1")
-0.535
